System: KRas G12C mutant
experimental_details: Ras GTP binding domain inhibition assay (Cy3-GTP/Cy5-GTP competition)
Parameters: species or system human
run_parameters: 20 μM; with SOS
metric_name: KRas G12C mutant + SOS: % inh.

Solved cases (5 shown):
| molecule | target_under_test | measured_result |
| --- | --- | --- |
| Cc1cn(C)c(-c2nc(O)c3scc(-c4ccccn4)c3n2)n1 [drawing 807] | KRas G12C mutant | C (51-75% inhibition) |
| CC(C)NC(=O)c1nc(-c2nccn2C)nc(O)c1O [drawing 830] | KRas G12C mutant | B (26-50% inhibition) |
| CO[C@@H]1CCC(Nc2nc(-c3nccn3C)nc3sc(-c4ccn(C)n4)c(-c4ccccc4)c23)C1 (some centres unmarked) [drawing 859] | KRas G12C mutant | C (51-75% inhibition) |
| COCCCN(C)c1nc(-c2nccn2C)nc2sc(-c3ccn(C)n3)c(-c3ccccc3)c12 [drawing 865] | KRas G12C mutant | B (26-50% inhibition) |
| Oc1nc(-c2cn(-c3ccccc3)cn2)nc2c(-c3ccccn3)csc12 [drawing 847] | KRas G12C mutant | A (1-25% inhibition) |

Request: Which KRas G12C mutant + SOS: % inh. reading was recorded for the molecule COCCNc1nc(-c2nccn2C)nc2sc(-c3cccc(OC)c3)c(-c3ccc(OC)cc3)c12 [drawing 875] ?
Response: D (76-100% inhibition)

Request: May I ask what KRas G12C mutant + SOS: % inh. has been recorded for COC1CCN(c2nc(-c3nccn3C)nc3sc(-c4ccc(CO)cc4)c(-c4ccccc4)c23)C1.Cl (centres unmarked) ?
Response: D (76-100% inhibition)

Request: Need KRas G12C mutant + SOS: % inh., item Cn1ccnc1-c1nc(O)c(O)c(C(=O)N2CCCCC2)n1 [drawing 826]
Response: A (1-25% inhibition)

Request: Reported KRas G12C mutant + SOS: % inh., molecule COCCNc1nc(-c2cn(C)cn2)nc2sc(-c3cccc(OC)c3Cl)c(-c3ccc(OC)cc3)c12 [drawing 797] : ____
Response: D (76-100% inhibition)

Request: Query: KRas G12C mutant + SOS: % inh.; subject: Cn1ccnc1-c1nc(O)c(O)c(C(=O)NC2CCCC2)n1 [drawing 827]
Response: B (26-50% inhibition)

###

Tested on: KRas G12C mutant
experimental_details: Ras GTP binding domain inhibition assay (Cy3-GTP/Cy5-GTP competition)
Set-up: species or system human
run_parameters: 20 μM; without SOS (Table 7A)
metric_name: KRas G12C mutant: % inh.

| molecule | measured_result |
| --- | --- |
| COC1CCC(Nc2nc(-c3nccn3C)nc3sc(-c4cccc5[nH]ncc45)c(-c4ccccc4)c23)C1 (stereo not shown) [drawing 888] | B (26-50% inhibition) |
| CO[C@H]1CC[C@@H](Nc2nc(-c3nccn3C)nc(C(=O)N3CCc4c(O)cccc4C3)c2C)C1 [drawing 901] | B (26-50% inhibition) |
| CO[C@H]1CC[C@@H](Nc2nc(-c3ncc[nH]3)nc3sc(-c4ccn(C)n4)c(-c4ccccc4)c23)C1 [drawing 911] | C (51-75% inhibition) |
| CCOc1cccc(Nc2nc(-c3ccccn3)nc(O)c2OC)c1 [drawing 882] | C (51-75% inhibition) |
| CO[C@H]1CC[C@@H](Nc2nc(-c3nccn3C)nc3sc(-c4ccn(C)n4)c(C)c23)C1 [drawing 915] | C (51-75% inhibition) |
| Cc1c(-c2ccn(C)n2)sc2nc(-c3nccn3C)nc(NCCOC(=O)N(C)C)c12 [drawing 918] | D (76-100% inhibition) |
| CO[C@H]1C[C@@H](Nc2nc(-c3ccccn3)nc3sccc23)C1 [drawing 902] | C (51-75% inhibition) |
| CC(C)COc1ccc(-c2csc3c(O)nc(-c4nccn4Cc4ccccn4)nc23)cn1 [drawing 899] | C (51-75% inhibition) |
| COc1cccc(Cn2ccnc2-c2nc(O)c3scc(-c4ccc(OCC(C)C)nc4)c3n2)c1 [drawing 900] | C (51-75% inhibition) |
| COc1cccc(-c2sc3nc(-c4nccn4C)nc(NC4CCC(OC)C4)c3c2-c2ccccc2)c1F (stereo not shown) [drawing 883] | B (26-50% inhibition) |

Request: Tell me the measured KRas G12C mutant: % inh. of CCn1cc(Nc2nc(-c3ccccn3)nc(O)c2OC)cn1 [drawing 881] , please.
Response: C (51-75% inhibition)

###

target_under_test: Rho-A (Homo sapiens)
experimental_details: Ras GTP binding domain inhibition assay (Cy3-GTP/Cy5-GTP competition)
run_parameters: with SOS, read-out: Rho-A + SOS: % inh.
Text: The following method was developed as specific assay for the following proteins: KRas wild type, KRas Q61H mutant, KRas G12C mutant, KRas G12D mutant, HRas wild type, Rac-1, and Rho-A. […] The small GTPases proteins: KRas wild type. KRas Q61H mutant, KRas G12C mutant, KRas G12D mutants, HRas wild type, Rac-1, and Rho-A were expressed as His-tagged proteins. In addition, the Guanosine nucleotide Exchange Factor (GEF) Sos protein (residues 556-1049) was expressed as a His-tagged protein. […]
Recorded inhibition at 20 µM values for a group of molecules are listed next.

Below, 6 molecules whose answers are already recorded.
| molecule | inhibition at 20 µM |
| --- | --- |
| COCCNC(=O)c1sc2nc(-c3nccn3C)nc(N[C@H]3C[C@@H](OC)C3)c2c1-c1ccccc1 [drawing 1056] | 51 to 75% |
| Cc1cn(C)c(-c2nc(O)c3scc(-c4ccccn4)c3n2)n1 [drawing 942] | 76 to 100% |
| COCCNc1nc(-c2cn(C)cn2)nc2sc(-c3ccccc3Cl)c(-c3ccc(OC)cc3)c12 [drawing 1008] | 0% |
| Cn1ccnc1-c1nc(O)c(O)c(C(=O)NC2CCCC2)n1 [drawing 962] | 76 to 100% |
| COCCc1ccc(Oc2nc(-c3ccccn3)nc(O)c2OC)cc1 [drawing 949] | 76 to 100% |
| CC(C)NC(=O)c1nc(-c2nccn2C)nc(O)c1O [drawing 965] | 76 to 100% |

Request: Param readout= inhibition at 20 µM; system= Rho-A (Homo sapiens); entry= Cn1ccc(-c2sc3nc(-c4nccn4C)nc(O)c3c2-c2ccccc2)n1 [drawing 1039] ; returns value.
Response: 26 to 50%

Request: Missing value: inhibition at 20 µM, Rho-A (Homo sapiens), entry COc1nc(-c2ccccn2)nc2c(-c3ccccn3)csc12 [drawing 1048] . Fill in?
Response: 26 to 50%

Request: Request - read-out inhibition at 20 µM | tested on Rho-A (Homo sapiens) | molecule CO[C@H]1CC[C@@H](Nc2nc(-c3nccn3C)nc3sc(-c4ccn(C(C)C)n4)c(C)c23)C1 [drawing 1054]
Response: 76 to 100%

###

target_under_test: KRas G12D mutant (Homo sapiens, UniProt P01116, G12D)
Construct: fused on or other part: His tag, used for capture on nickel-coated plates
experimental_details: Ras GTP binding domain inhibition assay (Cy3-GTP/Cy5-GTP competition)
run_parameters: at 20 μM, with SOS; read-out: KRas G12D mutant + SOS: % inh.
The compounds listed here are annotated with their inhibition at 20 µM.

| compound | inhibition at 20 µM |
| --- | --- |
| COc1cccc(-c2sc3nc(-c4nccn4C)nc(N4CCC(OC)C4)c3c2-c2cscn2)c1 (centres unmarked) [drawing 1002] | 51 to 75% |

Request: Quick one: inhibition at 20 µM for COC1CCN(c2nc(-c3nccn3C)nc3sc(-c4ccn(C)n4)c(-c4ccccc4)c23)C1 (centres unmarked) [drawing 998] ?
Response: 1 to 25%

Request: What does the data say about its inhibition at 20 µM? Entry: COc1ccc(Cn2cnc(-c3nc(O)c4scc(-c5ccccn5)c4n3)c2)cc1 [drawing 974]
Response: 0%

Request: If you can, please state the reported inhibition at 20 µM value of COc1c(O)nc(-c2ccccn2)nc1Oc1cnn(C)c1 [drawing 938] .
Response: 51 to 75%

Request: Consider the compound shown here: COCCc1ccc(Oc2nc(-c3ccccn3)nc(O)c2OC)cc1 [drawing 949] What is its recorded inhibition at 20 µM?
Response: 26 to 50%

Request: I'd like to know its inhibition at 20 µM. The compound in question is COC1CCN(c2nc(-c3nccn3C)nn3cc(-c4ccccc4)c(-c4ccccc4)c23)C1 (centres unmarked) [drawing 931]
Response: 1 to 25%

Request: Which inhibition at 20 µM is reported for this compound? CO[C@H]1CC[C@@H](Nc2nc(-c3nccn3C)nc3sc(C(=O)N4CCCC4)c(-c4ccccc4)c23)C1 [drawing 1061]
Response: 51 to 75%

Request: Quick one: inhibition at 20 µM of CO[C@H]1CC[C@@H](Nc2nc(-c3nccn3C)nc3sc(C(=O)NC(C)C)c(-c4ccccc4)c23)C1 [drawing 1059] ?
Response: 76 to 100%

Request: Please give the measured inhibition at 20 µM for this compound: COCCn1cc(-c2sc3nc(-c4nccn4C)nc(N4CCC(OC)C4)c3c2-c2ccccc2)cn1 (centres unmarked) [drawing 976]
Response: 51 to 75%

Request: Returns the measured inhibition at 20 µM for the input compound. Input: COc1cccc(-c2csc3c(O)nc(-c4nccn4C)nc23)c1Cl [drawing 1013]
Response: 1 to 25%

Request: Query: inhibition at 20 µM; subject: CO[C@H]1CC[C@@H](Nc2nc(-c3ncc[nH]3)nc3sc(-c4ccn(C)n4)c(-c4ccccc4)c23)C1 [drawing 1046]
Response: 51 to 75%

Request: Item under review: COC1CCN(c2nc(-c3nccn3C)nc3sc(-c4ccccc4CO)c(-c4ccccc4)c23)C1 (centres unmarked) [drawing 952] . Reported inhibition at 20 µM?
Response: 51 to 75%

Request: Entry COc1ncccc1-c1sc2nc(-c3nccn3C)nc(N3CCC(OC)C3)c2c1-c1ccccc1 (centres unmarked) [drawing 978] has what inhibition at 20 µM?
Response: 51 to 75%

Request: Which inhibition at 20 µM value is on record for Cn1ccc(-c2sc3nc(-c4nccn4C)nc(N4CCC5(CCOC5)C4)c3c2-c2ccccc2)n1 (centres unmarked) [drawing 992] ?
Response: 1 to 25%

Request: Request the reported inhibition at 20 µM associated with COc1cccc(-c2sc3nc(-c4nc(C)cn4C)nc(N[C@@H]4CC[C@H](OC)C4)c3c2C)c1F [drawing 1031]
Response: 26 to 50%

Request: Would you mind telling me what inhibition at 20 µM value was observed for COC(=O)c1nc(-c2nccn2C)nc(O)c1O [drawing 959] ?
Response: 26 to 50%

Request: For the compound shown here, COc1c(O)nc(-c2ccccn2)nc1Oc1ccc2ncccc2c1 [drawing 939] , give the reported inhibition at 20 µM.
Response: 26 to 50%

Request: What does the record list as inhibition at 20 µM for CO[C@H]1CC[C@@H](Nc2nc(-c3nc(C)cn3C)nc3sc(-c4cccc5[nH]ncc45)c(C)c23)C1 [drawing 1032] ?
Response: 26 to 50%
